This collection of values is drawn from ChEMBL document CHEMBL1129252.

Overview of reported pIC50 across a group of compounds:
Target: Acetylcholinesterase (Rattus norvegicus, UniProt P37136)
Sequence (P37136 whole entry): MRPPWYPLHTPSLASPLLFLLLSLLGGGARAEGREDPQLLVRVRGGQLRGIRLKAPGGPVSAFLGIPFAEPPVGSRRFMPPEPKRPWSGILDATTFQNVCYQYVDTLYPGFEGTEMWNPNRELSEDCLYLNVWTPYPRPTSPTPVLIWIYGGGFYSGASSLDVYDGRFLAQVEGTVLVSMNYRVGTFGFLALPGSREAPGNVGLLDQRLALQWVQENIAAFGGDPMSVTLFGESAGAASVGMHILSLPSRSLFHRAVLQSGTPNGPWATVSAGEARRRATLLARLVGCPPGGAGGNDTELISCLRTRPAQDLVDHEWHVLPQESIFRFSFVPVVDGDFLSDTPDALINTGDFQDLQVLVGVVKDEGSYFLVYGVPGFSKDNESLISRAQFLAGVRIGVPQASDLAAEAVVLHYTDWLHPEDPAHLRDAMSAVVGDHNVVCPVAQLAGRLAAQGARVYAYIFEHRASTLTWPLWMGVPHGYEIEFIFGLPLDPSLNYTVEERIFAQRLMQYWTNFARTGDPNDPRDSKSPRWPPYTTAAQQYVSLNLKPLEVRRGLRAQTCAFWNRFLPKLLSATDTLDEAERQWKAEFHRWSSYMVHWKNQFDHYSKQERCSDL
Quick note: pIC50 means taking -log10 of the concentration in moles per liter.

compound="Nc1c2c(nc3ccccc13)CC(O)CC2 (centres undefined) [7-HYDROXYTACRINE]" assay_system="Acetylcholinesterase (Rattus norvegicus, UniProt P37136)" recorded_value=6.32
compound="Nc1c2c(nc3ccccc13)CCCC2O (centres undefined)" assay_system="Acetylcholinesterase (Rattus norvegicus, UniProt P37136)" recorded_value=6.44
compound="Nc1c2c(nc3ccccc13)C(O)CCC2 (centres undefined)" assay_system="Acetylcholinesterase (Rattus norvegicus, UniProt P37136)" recorded_value=6.39

// moving on: another record for pIC50
Missing value: pIC50, Acetylcholinesterase (Rattus norvegicus, UniProt P37136), entry Nc1c2c(nc3ccccc13)CCC(O)C2 (centres undefined) . Fill in?
5.75
